The values you see were collected from ChEMBL document CHEMBL1142761.

Target: Progesterone receptor (Homo sapiens)
Sequence (P06401 whole entry): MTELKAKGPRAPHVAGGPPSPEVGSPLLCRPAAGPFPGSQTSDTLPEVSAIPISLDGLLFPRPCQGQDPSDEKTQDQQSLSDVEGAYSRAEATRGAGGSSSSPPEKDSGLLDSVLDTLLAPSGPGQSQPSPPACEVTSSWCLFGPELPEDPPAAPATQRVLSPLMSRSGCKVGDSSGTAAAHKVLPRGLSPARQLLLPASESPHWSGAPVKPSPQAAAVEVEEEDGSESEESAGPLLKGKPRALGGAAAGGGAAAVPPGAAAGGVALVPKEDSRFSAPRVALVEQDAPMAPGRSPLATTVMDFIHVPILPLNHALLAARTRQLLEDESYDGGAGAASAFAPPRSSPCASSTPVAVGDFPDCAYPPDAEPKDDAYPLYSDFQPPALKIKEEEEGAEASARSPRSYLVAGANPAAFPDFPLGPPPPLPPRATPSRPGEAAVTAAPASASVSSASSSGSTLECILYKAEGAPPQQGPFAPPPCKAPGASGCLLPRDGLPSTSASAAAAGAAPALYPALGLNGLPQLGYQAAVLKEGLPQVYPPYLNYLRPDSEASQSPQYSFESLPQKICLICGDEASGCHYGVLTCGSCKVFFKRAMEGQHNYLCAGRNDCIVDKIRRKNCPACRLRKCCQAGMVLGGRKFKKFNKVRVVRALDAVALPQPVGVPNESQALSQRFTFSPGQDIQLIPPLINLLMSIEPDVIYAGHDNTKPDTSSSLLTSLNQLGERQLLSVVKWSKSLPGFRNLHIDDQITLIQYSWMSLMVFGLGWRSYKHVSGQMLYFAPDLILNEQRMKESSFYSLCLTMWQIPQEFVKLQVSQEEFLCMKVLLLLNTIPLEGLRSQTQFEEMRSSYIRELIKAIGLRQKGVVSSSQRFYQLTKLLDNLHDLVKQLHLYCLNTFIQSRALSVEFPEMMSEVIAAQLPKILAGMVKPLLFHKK
Assay: Progesterone receptor antagonist activity in human T47D breast carcinoma cell alkaline phosphatase assay
pIC50: −log10 of the molar value.
OUTCOME MEASURE: pIC50

O=c1[nH]c2ccc(-c3ccc(F)c(F)c3)cc2n1C1CCC1
6.76
O=c1[nH]c2ccc(-c3ccc(F)c(F)c3)cc2n1C1CCCC1
7.01
N#Cc1cc(F)cc(-c2ccc3[nH]c(=O)n(C4CCC4)c3c2)c1
8.48
CC(C)n1c(O)nc2ccc(-c3ccc(C#N)n3C)cc21
8.33
CC(C)n1c(=O)[nH]c2ccc(-c3ccc(F)c(Cl)c3)cc21
6.98
CC(C)n1c(=O)[nH]c2ccc(-c3cccc(F)c3)cc21
7.11

P = Oc1nc2ccc(-c3ccc(F)c(Cl)c3)cc2n1C1CCC1
Q = Cc1cc(C#N)sc1-c1ccc2nc(O)n(C(C)C)c2c1
R = Cn1c(C#N)ccc1-c1ccc2[nH]c(=O)n(C3CCCC3)c2c1
S = CC(C)n1c(O)nc2ccc(-c3ccc(F)c(F)c3)cc21
T = CC(C)n1c(O)nc2ccc(-c3ccc(F)c(C#N)c3)cc21
[ask] Returns the items ordered by pIC50, from maximum to minimum. Provide your answer as the labels ordered per the instruction.
[reply] R, Q, T, P, S
